These entries and their values trace back to patent US6531496B1.

Test: logP by HPLC (EEC Directive 79/831 Annex V. A8, gradient method)
Type: physicochemical
Details: HPLC, gradient method, acetonitrile/0.1% aqueous phosphoric acid; Table 1
Measurement Name: logP
I only need the number, thanks.

Per the records, this compound ( CCN(CC)C(=O)c1ccc(OC2=NS(=O)(=O)CS2)c(NC)c1 ) has logP equal to 2

Per the records, this compound ( N#CSCC(=O)c1ccc(OC2=NS(=O)(=O)CS2)cc1 ) has logP equal to 2.01

Per the records, this compound ( CC(=O)c1cc(OC2=NS(=O)(=O)CS2)cc([N+](=O)[O-])c1 ) has logP equal to 1.95
